Source: patent US6479435B1

tested on: upland rice (Oryza sp., var.Tebonnet, RICE); assay: Pre-emerge greenhouse test, crop damage rating; type: in vivo; conditions: 125 g ai/ha, 14 days after application, rating scale 0-100
Recorded crop damage rating RICE for the following compounds

| compound | crop damage rating RICE |
| --- | --- |
| O=c1sc(=Nc2cc(Oc3ncccn3)c(Cl)cc2F)n2n1CCCC2 | 90 |
| CCOC(=O)C(C)Oc1ccc(Oc2cc(-n3c(=O)n4n(c3=S)CCCC4)c(F)cc2Cl)cc1 (stereo not drawn) | 50 |
| N#Cc1cccnc1Oc1cc(-n2nnn(CCCF)c2=O)c(F)cc1Cl | 15 |
| Nc1ccc(Oc2cc(-n3c(=O)n4n(c3=S)CCCC4)c(F)cc2Cl)cc1 | 0 |
| N#Cc1cc([N+](=O)[O-])ccc1Oc1cc(-n2c(=O)n3n(c2=S)CCCC3)c(F)cc1Cl | 20 |
| Cc1nn(-c2cc(Oc3ncccn3)c(Cl)cc2F)c(=O)n1C(F)F | 99 |
| O=c1n(-c2cc(Oc3ccc([N+](=O)[O-])cc3C(F)(F)F)c(Cl)cc2F)c(=S)n2n1CCCC2 | 0 |
| O=c1n(CCCF)nnn1-c1cc(Oc2ncccc2C(F)(F)F)c(Cl)cc1F | 0 |
| N#Cc1cccnc1Oc1cc(-n2nnn(CCCF)c2=O)c(Cl)cc1Cl | 20 |
| Cn1nc(-c2cc(Oc3ccc(C#N)cn3)c(Cl)cc2F)c(Cl)c1C(F)(F)F | 30 |
| O=c1n(-c2cc(Oc3ccc([N+](=O)[O-])cc3)c(Cl)cc2F)c(=S)n2n1CCCC2 | 0 |
| Cn1nc(-c2cc(Oc3nc(F)c(F)cc3F)c(Cl)cc2F)c(Cl)c1C(F)(F)F | 0 |
| CN1CC(=O)N(c2cc(Oc3ncccn3)c(Cl)cc2F)C1=O | 0 |
| Cn1nc(-c2cc(Oc3ncccc3C#N)c(Cl)cc2F)c(Cl)c1C(F)(F)F | 0 |
| COc1cc(OC)nc(Oc2cc(-n3nnn(CCCF)c3=O)c(F)cc2Cl)n1 | 0 |
| CC(=O)Nc1ccc(Oc2cc(-n3c(=O)n4n(c3=S)CCCC4)c(F)cc2Cl)c(C(F)(F)F)c1 | 0 |
| O=c1n(CCCF)nnn1-c1cc(Oc2ncccc2C(F)(F)F)c(Cl)cc1Cl | 0 |
| O=c1n(CCCF)nnn1-c1cc(Oc2ncc(Br)cn2)c(Cl)cc1F | 0 |
| O=c1n(CCCF)nnn1-c1cc(Oc2ncccc2[N+](=O)[O-])c(Cl)cc1Cl | 20 |
| O=c1n(CCCF)nnn1-c1cc(Oc2ncccc2[N+](=O)[O-])c(Cl)cc1F | 20 |
| O=c1n(-c2cc(Oc3ccccc3[N+](=O)[O-])c(Cl)cc2F)c(=S)n2n1CCCC2 | 10 |
| O=C1C2CCCCN2C(=O)N1c1cc(Oc2ncccc2C(F)(F)F)c(Cl)cc1F (stereo not drawn) | 0 |
| Cc1nsc(Oc2cc(-n3nnn(CCCF)c3=O)c(F)cc2Cl)c1[N+](=O)[O-] | 6 |
| CCN1CC(=O)N(c2cc(Oc3ncccn3)c(Cl)cc2F)C1=O | 40 |
